Test: Modified PAMPA with brain lipids, blood brain barrier permeation by LC-MS-MS
Format: in vitro ADME
endpoint: recovery (%)
Return type: number; implicit unit %.

For the compound Cc1[nH]c2ccc(C(=O)NCCN(C)C)cc2c1C , give its measured recovery value. 88.5

* * *

Molecular target: mHTT (Mus musculus, UniProt P42859, DEL28-30/G47A/INS49LLPQPQPP/INS60VA/L56P/P40L)
Sequence (P42859 with tags, fused parts or gaps DEL28-30/P40L/G47A/INS49LLPQPQPP/L56P/INS60VA): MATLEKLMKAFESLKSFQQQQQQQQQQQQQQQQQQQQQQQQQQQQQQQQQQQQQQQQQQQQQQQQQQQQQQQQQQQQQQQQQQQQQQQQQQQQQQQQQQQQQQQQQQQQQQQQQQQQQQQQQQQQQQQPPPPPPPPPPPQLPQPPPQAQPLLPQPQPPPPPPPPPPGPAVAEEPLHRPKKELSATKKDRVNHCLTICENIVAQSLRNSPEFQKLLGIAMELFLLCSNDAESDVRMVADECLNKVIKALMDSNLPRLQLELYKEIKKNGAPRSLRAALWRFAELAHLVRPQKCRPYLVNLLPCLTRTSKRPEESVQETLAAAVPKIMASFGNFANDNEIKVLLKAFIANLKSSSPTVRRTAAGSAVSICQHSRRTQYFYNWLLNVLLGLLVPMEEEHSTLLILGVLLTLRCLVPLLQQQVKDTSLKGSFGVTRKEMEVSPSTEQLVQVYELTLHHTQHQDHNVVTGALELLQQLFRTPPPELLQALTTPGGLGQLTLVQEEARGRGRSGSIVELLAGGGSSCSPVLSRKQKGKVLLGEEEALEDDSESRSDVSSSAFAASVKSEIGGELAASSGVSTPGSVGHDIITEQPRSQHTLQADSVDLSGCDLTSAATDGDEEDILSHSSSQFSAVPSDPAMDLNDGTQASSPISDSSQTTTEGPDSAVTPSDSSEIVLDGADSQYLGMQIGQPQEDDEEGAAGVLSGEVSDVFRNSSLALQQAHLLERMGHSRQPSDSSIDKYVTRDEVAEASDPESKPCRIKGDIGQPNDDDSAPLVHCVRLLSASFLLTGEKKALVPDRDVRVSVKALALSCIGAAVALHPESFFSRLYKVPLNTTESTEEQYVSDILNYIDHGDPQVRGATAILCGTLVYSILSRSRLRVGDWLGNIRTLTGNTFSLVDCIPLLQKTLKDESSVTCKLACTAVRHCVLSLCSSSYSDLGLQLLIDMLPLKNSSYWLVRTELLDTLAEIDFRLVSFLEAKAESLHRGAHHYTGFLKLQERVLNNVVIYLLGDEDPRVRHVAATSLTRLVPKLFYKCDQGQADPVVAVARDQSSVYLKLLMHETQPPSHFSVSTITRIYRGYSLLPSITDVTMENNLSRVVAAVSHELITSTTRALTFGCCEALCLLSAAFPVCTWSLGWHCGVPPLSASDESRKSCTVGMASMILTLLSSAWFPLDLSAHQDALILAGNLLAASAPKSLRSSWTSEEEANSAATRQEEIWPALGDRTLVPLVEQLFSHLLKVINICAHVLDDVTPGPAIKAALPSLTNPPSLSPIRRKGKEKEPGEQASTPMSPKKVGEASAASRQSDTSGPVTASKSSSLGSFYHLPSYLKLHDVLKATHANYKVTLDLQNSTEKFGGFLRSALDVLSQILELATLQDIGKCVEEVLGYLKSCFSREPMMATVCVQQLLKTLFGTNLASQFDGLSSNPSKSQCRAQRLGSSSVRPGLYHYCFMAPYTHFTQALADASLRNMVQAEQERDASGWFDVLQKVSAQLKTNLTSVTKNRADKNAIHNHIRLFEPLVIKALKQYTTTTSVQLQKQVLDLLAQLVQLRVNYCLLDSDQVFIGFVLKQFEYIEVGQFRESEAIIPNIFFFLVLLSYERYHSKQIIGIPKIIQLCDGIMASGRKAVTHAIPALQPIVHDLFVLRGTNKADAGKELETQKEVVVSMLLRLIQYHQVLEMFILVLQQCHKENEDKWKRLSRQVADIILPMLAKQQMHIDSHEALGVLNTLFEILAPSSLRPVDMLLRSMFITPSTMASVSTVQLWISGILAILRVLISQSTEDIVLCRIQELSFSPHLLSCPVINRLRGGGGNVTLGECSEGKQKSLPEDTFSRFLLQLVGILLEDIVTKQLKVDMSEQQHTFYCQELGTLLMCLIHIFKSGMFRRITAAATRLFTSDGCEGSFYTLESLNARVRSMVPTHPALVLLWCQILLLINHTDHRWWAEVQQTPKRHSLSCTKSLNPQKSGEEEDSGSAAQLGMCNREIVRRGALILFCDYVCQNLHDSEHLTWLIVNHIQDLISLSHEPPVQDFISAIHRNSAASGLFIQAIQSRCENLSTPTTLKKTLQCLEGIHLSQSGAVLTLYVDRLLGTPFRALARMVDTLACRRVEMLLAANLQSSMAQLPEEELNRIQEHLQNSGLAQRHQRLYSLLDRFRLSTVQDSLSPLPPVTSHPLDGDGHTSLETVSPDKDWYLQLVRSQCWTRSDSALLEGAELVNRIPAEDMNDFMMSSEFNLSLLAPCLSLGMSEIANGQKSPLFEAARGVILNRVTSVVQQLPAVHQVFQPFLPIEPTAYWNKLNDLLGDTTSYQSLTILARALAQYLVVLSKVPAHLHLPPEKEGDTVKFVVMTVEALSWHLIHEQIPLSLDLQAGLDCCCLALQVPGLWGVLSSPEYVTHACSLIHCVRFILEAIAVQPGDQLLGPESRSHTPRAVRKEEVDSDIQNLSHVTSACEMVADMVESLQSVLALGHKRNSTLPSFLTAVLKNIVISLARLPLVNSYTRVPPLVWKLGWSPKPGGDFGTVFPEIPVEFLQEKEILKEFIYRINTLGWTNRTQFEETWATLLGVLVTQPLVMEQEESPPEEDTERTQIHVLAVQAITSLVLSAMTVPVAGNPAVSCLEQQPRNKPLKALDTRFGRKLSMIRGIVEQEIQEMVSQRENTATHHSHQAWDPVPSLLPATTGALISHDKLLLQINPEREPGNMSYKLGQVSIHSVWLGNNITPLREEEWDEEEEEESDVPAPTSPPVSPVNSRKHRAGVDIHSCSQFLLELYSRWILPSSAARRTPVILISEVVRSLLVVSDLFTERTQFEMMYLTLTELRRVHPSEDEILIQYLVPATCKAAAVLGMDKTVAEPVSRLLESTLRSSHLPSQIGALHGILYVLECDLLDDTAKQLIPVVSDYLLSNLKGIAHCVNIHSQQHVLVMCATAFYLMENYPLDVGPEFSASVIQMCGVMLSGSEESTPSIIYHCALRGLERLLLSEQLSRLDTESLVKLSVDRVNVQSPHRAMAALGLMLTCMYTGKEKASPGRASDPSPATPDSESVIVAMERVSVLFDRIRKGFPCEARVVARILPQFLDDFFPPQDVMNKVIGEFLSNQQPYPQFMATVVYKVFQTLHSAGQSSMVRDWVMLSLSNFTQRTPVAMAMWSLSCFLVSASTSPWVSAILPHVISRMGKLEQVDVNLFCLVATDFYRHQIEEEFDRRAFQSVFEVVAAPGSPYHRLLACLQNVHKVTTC
Test: Diffuse mHTT levels in heat shocked STHdh 111/111 striatal cells by immunocytochemistry
endpoint: EC50 (nM)
Enter your answer as a number in nM; do not include the unit.

Please report the measured EC50 for CCc1c(C)[nH]c2ccc(C(=O)NCCN(CC)CC)cc12 130

* * *

Molecular target: mHTT (Mus musculus, UniProt P42859, DEL28-30/G47A/INS49LLPQPQPP/INS60VA/L56P/P40L)
Assay: Diffuse mHTT levels in heat shocked STHdh 111/111 striatal cells by immunocytochemistry
Details: 48 h, read-out: mHTT after treatment
Doc: threshold 40% (exclusive). Items with remaining activity at 10 µM beneath it return criterion met; others return criterion not met.

For orientation, consider the following solved cases.
smiles	label.class
CCN(CC)CCNC(=O)c1ccc2[nH]c3c(c2c1)CCCC3	criterion not met
Cc1[nH]c2ccc(C(=O)NCCN(C)C)cc2c1C	criterion not met
Cc1c(C)n(C)c2ccc(C(=O)NCCN(C(C)C)C(C)C)cc12	criterion not met

Please state whether remaining activity at 10 µM is below 40% for CCc1c(C)[nH]c2ccc(C(=O)NCCN3CCCCC3)cc12 criterion not met

I'd appreciate it if you could check whether CCc1c(C)[nH]c2ccc(C(=O)NCCN(C)C)cc12 has remaining activity at 10 µM smaller than 40%. criterion met

In the record for CCN(CC)CCNC(=O)c1ccc2[nH]c3c(c2c1)CCC3 , is remaining activity at 10 µM less than 40%? criterion not met

Consider CCc1[nH]c2ccc(C(=O)NCCN3CCC3)cc2c1C . Does its remaining activity at 10 µM lie strictly below 40%? criterion met

Given CCN(CC)CCNC(=O)c1ccc2[nH]ccc2c1 , is recorded remaining activity at 10 µM strictly lower than 40%? criterion not met

* * *

Molecular target: mHTT (Mus musculus, UniProt P42859, DEL28-30/G47A/INS49LLPQPQPP/INS60VA/L56P/P40L)
Test: Diffuse mHTT levels in heat shocked STHdh 111/111 striatal cells by immunocytochemistry
Details: 48 h, read-out: mHTT after treatment, 10 µM; 3 h heat shock, 48 hours treatment; in comparison to untreated STHdh 111/111
endpoint: remaining activity at 10 µM (%)
Give the value in % but do not write % after it.

smiles	study.system	remaining activity at 10 µM (%)
Cc1c(C)n(C)c2ccc(C(=O)NCCN3CCN(C)CC3)cc12	mHTT (Mus musculus, UniProt P42859, DEL28-30/G47A/INS49LLPQPQPP/INS60VA/L56P/P40L)	66
Cc1c(C)n(C)c2ccc(C(=O)NCCN(C(C)C)C(C)C)cc12.Cl	mHTT (Mus musculus, UniProt P42859, DEL28-30/G47A/INS49LLPQPQPP/INS60VA/L56P/P40L)	58
CCN(CC)CCNC(=O)c1ccc2c(c1)c(C)c(C)n2C	mHTT (Mus musculus, UniProt P42859, DEL28-30/G47A/INS49LLPQPQPP/INS60VA/L56P/P40L)	45

Moving on to another compound below.
Recall the reported remaining activity at 10 µM of Cc1c(C)n(C)c2ccc(C(=O)NCCN3CCC3)cc12 when tested on mHTT (Mus musculus, UniProt P42859, DEL28-30/G47A/INS49LLPQPQPP/INS60VA/L56P/P40L). 66

* * *

Molecular target: mHTT (Mus musculus, UniProt P42859, DEL28-30/G47A/INS49LLPQPQPP/INS60VA/L56P/P40L)
Assay: Diffuse mHTT levels in heat shocked STHdh 111/111 striatal cells by immunocytochemistry
Conditions: 48 h, read-out: mHTT after treatment
endpoint: remaining activity at 10 µM (%)
Response body: numeric value in %, unit text excluded.

// solved cases for remaining activity at 10 µM follow
molecule	remaining activity at 10 µM [%]
O=C(NCCN1CCOCC1)c1ccc2[nH]c3c(c2c1)CCCC3 [Compound 12]	40
O=C(NCCN1CCCC1)c1ccc2[nH]c3c(c2c1)CCC3 [Compound 14]	41
CN1CCN(CCNC(=O)c2ccc3[nH]c4c(c3c2)CCC4)CC1 [Compound 10]	40

Switching to the query record.
Give the observed remaining activity at 10 µM of CCc1[nH]c2ccc(C(=O)NCCN3CCCC3)cc2c1C [Compound 11] for mHTT (Mus musculus, UniProt P42859, DEL28-30/G47A/INS49LLPQPQPP/INS60VA/L56P/P40L). 40
